Give IC50 for every item shown.
- measured_target: Recombinant Human Anaplastic Lymphoma Kinase (Homo sapiens)
- Construct: purchased Invitrogen, Carlsbad, Calif
- Sequence (Q9UM73 19-1620): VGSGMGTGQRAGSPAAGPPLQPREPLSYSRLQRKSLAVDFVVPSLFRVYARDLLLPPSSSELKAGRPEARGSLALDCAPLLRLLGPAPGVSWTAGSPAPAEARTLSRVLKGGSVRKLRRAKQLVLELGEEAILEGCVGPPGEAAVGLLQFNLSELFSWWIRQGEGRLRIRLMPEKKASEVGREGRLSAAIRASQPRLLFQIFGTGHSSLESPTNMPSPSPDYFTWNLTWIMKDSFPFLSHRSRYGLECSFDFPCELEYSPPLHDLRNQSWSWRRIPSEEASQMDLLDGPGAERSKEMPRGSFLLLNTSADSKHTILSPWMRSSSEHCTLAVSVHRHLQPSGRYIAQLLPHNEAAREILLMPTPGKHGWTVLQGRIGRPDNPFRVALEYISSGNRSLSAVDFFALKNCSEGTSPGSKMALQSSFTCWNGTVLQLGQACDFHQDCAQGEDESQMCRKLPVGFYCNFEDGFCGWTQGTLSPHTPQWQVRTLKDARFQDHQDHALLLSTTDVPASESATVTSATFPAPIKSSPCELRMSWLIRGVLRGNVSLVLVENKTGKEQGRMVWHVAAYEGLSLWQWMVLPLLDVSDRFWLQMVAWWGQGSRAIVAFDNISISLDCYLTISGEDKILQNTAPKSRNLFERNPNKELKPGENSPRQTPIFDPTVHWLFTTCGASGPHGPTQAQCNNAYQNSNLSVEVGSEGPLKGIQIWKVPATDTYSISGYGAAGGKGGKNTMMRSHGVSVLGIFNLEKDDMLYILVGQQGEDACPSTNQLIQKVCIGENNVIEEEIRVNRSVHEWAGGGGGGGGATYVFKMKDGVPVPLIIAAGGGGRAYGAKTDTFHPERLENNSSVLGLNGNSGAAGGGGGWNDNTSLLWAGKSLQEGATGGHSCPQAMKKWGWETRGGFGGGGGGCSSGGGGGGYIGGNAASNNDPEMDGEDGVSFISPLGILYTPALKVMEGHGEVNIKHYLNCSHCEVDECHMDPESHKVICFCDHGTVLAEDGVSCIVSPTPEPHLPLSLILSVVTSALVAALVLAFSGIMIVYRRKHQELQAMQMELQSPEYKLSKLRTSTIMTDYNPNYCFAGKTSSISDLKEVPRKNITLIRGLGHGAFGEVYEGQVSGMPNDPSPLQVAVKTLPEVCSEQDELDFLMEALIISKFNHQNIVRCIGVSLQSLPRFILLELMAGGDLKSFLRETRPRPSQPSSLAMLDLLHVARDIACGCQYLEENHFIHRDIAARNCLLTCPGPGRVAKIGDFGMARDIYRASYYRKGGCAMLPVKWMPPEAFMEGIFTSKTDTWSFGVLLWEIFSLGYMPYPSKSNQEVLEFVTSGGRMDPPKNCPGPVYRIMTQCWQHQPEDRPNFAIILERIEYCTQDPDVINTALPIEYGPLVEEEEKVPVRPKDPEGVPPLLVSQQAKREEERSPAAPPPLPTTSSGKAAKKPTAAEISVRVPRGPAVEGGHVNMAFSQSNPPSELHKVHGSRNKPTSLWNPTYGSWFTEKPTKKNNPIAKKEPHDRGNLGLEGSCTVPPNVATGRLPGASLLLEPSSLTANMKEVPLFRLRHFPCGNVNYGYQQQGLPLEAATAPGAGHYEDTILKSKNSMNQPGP
- protocol_summary: ALK HTRF kinase assay
- Format: biochemical
- condition_notes: Table D1; 90 μM ATP
Where a name gives a salt, the structure may show the parent alone.
Dear colleague, please return just the value in nM, with no unit written.

What the record says about NC(=O)N1CCN(c2cc(-c3cc4cc(c3)Nc3ncc(Cl)c(n3)Nc3cccc(c3)OCC4)ccn2)CC1 [Example D39, bis(trifluoroacetate)] : IC50 is 91

What the record says about Clc1cnc2nc1Nc1cccc(c1)CSc1cccc(c1)N2 [Example D2, trifluoroacetate] : IC50 is 774

What the record says about [O-][S+]1Cc2cccc(c2)Nc2nc(ncc2Cl)Nc2cccc1c2 (stereo not shown) [Example D3, trifluoroacetate] : IC50 is 1110

What the record says about Clc1cnc2nc1Nc1cccc(c1)OCCc1cc(cc(-c3ccnc(N4CCNCC4)c3)c1)N2 [Example D27, tris(trifluoroacetate)] : IC50 is 32

----------
- measured_target: TYK2 (Homo sapiens)
- Sequence (P29597 whole entry): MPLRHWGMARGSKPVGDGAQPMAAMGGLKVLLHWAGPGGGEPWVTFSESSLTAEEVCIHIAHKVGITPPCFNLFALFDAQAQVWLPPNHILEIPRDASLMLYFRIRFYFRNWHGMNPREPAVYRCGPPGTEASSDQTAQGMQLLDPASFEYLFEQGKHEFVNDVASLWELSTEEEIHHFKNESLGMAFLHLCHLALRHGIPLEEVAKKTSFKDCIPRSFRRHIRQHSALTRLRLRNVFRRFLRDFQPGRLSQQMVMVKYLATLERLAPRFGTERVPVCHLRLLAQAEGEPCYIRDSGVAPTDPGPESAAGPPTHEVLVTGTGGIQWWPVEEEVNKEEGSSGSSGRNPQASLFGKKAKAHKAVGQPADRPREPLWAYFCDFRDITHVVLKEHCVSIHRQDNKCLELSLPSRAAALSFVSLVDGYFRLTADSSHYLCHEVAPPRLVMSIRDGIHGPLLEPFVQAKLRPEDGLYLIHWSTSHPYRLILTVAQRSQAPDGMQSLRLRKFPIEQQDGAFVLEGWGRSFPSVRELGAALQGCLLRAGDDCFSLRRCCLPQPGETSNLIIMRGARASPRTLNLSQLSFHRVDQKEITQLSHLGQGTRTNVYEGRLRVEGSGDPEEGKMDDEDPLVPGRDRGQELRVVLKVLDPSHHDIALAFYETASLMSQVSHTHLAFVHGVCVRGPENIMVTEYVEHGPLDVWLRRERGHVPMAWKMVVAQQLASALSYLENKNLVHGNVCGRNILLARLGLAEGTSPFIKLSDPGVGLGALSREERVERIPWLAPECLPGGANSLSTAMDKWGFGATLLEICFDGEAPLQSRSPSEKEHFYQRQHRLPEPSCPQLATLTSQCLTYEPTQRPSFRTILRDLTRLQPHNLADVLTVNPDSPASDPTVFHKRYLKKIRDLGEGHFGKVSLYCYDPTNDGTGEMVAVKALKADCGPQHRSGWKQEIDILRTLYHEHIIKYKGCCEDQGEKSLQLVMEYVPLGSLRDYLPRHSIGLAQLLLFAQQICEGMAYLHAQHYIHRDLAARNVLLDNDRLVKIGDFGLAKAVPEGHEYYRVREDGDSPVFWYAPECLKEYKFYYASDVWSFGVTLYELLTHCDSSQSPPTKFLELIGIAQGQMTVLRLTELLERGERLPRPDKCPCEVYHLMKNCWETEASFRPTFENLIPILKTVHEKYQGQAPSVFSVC
- protocol_summary: TYK2 kinase inhibition (Table A1)
- Format: biochemical
- condition_notes: Table B1
Where a name gives a salt, the structure may show the parent alone.
// assign condition met if IC50 falls strictly below 20 nM, else condition not met (ties count as condition not met)

Request: # check: IC50 < 20 nM for O=S(=O)(Nc1ccc2cc1CCc1cccc(c1)Nc1ncc(Cl)c(n1)N2)c1cccc2cccnc12 [Example B160, bis(trifluoroacetate)]
Response: condition met

Request: # check: IC50 < 20 nM for O=C(Nc1ccc2cc1CCc1cccc(c1)Nc1ncc(Cl)c(n1)N2)Nc1cccc2ccccc12 [Example B124, trifluoroacetate]
Response: condition met

Request: # check: IC50 < 20 nM for Cc1cnc2nc1Nc1cccc(c1)/C=C\c1cccc(c1)N2 [Example B1, trifluoroacetate]
Response: condition met

Request: # check: IC50 < 20 nM for O=C(Nc1ccc2cc1CCc1cccc(c1)Nc1ncc(Cl)c(n1)N2)c1cnn2ccccc12 [Example B80, bis(trifluoroacetate)]
Response: condition met

Request: # check: IC50 < 20 nM for O=C(NCCNS(=O)(=O)c1ccc(Cl)s1)Nc1ccc2cc1CCc1cccc(c1)Nc1ncc(Cl)c(n1)N2 [Example B330, trifluoroacetate]
Response: condition met

Request: # check: IC50 < 20 nM for O=C(Nc1ccc2cc1CCc1cccc(c1)Nc1ncc(Cl)c(n1)N2)c1cccc(C(F)(F)F)c1 [Example B76, trifluoroacetate]
Response: condition not met

----------
Give IC50 for every item shown.
- measured_target: human JAK2 (a.a. 828-1132) (Homo sapiens)
- Construct: JAK2 (a.a. 828-1132); His tag (N); made in house; host or cells: insect cells (baculovirus)
- protocol_summary: In vitro JAK kinase assay (HTRF, phosphorylation of a biotinylated peptide), JAK2
- Assay type: biochemical
- condition_notes: Table B1
Where a name gives a salt, the structure may show the parent alone.
Dear colleague, please return just the value in nM, with no unit written.

// returns IC50 for COCC(C)NC(=O)Nc1ccc2cc1CCc1cccc(c1)Nc1ncc(Cl)c(n1)N2 (stereo not shown) [Example B247] with human JAK2 (a.a. 828-1132) (Homo sapiens); value = 4

// returns IC50 for O=C(Nc1cc2cc(c1)Nc1nc(ncc1Cl)Nc1cccc(c1)CC2)Nc1ccccc1F [Example B213, trifluoroacetate] with human JAK2 (a.a. 828-1132) (Homo sapiens); value = 173

// returns IC50 for O=C(Nc1ccc2cc1CCc1cncc(c1)Nc1ncc(Cl)c(n1)N2)N[C@H]1CCN(C(=O)c2cc(C3CC3)on2)C1 [Example B270, bis(trifluoroacetate)] with human JAK2 (a.a. 828-1132) (Homo sapiens); value = 279

// returns IC50 for O=C(Nc1ccc2cc1CCc1cccc(c1)Nc1ncc(Cl)c(n1)N2)C1CCC1 [Example B57, hydrochloride] with human JAK2 (a.a. 828-1132) (Homo sapiens); value = 5.3

// returns IC50 for O=C(Nc1ccc2cc1CCc1cccc(c1)Nc1ncc(Cl)c(n1)N2)C1CC1 [Example B27, trifluoroacetate] with human JAK2 (a.a. 828-1132) (Homo sapiens); value = 3.7

// returns IC50 for Cc1cc(C(=O)N2CCC(CN(C)Cc3ccc4cc3CCc3cncc(c3)Nc3ncc(Cl)c(n3)N4)CC2)no1 [Example B344, tris(trifluoroacetate)] with human JAK2 (a.a. 828-1132) (Homo sapiens); value = 90

// returns IC50 for CN(C(=O)Nc1ccc2cc1CCc1cncc(c1)Nc1ncc(Cl)c(n1)N2)[C@H]1CCN(C(=O)c2ccccc2)C1 [Example B291, bis(trifluoroacetate)] with human JAK2 (a.a. 828-1132) (Homo sapiens); value = 100

// returns IC50 for CN(Cc1ccc2cc1CCc1cncc(c1)Nc1ncc(Cl)c(n1)N2)CC1CCN(S(=O)(=O)c2ccccc2C#N)CC1 [Example B340, tris(trifluoroacetate)] with human JAK2 (a.a. 828-1132) (Homo sapiens); value = 41

// returns IC50 for O=C(Nc1ccc2cc1CCc1cncc(c1)Nc1ncc(Cl)c(n1)N2)N1CCN(c2cccc(Cl)c2)CC1 [Example B306, tris(trifluoroacetate)] with human JAK2 (a.a. 828-1132) (Homo sapiens); value = 265

// returns IC50 for O=C(Nc1ccccn1)Nc1ccc2cc1CCc1cccc(c1)Nc1ncc(Cl)c(n1)N2 [Example B253, bis(trifluoroacetate)] with human JAK2 (a.a. 828-1132) (Homo sapiens); value = 72

// returns IC50 for O=C(Nc1ccc2cc1CCc1cncc(c1)Nc1ncc(Cl)c(n1)N2)N1CCC(S(=O)(=O)c2ccccc2)C1 (stereo not shown) [Example B321, bis(trifluoroacetate)] with human JAK2 (a.a. 828-1132) (Homo sapiens); value = 371

// returns IC50 for N#Cc1cccnc1N1CCN(C(=O)Nc2ccc3cc2CCc2cncc(c2)Nc2ncc(Cl)c(n2)N3)CC1 [Example B311, tris(trifluoroacetate)] with human JAK2 (a.a. 828-1132) (Homo sapiens); value = 170

// returns IC50 for O=C(Nc1ccc2cc1CCc1cccc(c1)Nc1ncc(Cl)c(n1)N2)N[C@@H]1CCNC1 [Example B175, dihydrochloride] with human JAK2 (a.a. 828-1132) (Homo sapiens); value = 18

// returns IC50 for CCc1cccc(NC(=O)Nc2ccc3cc2CCc2cccc(c2)Nc2ncc(Cl)c(n2)N3)c1 [Example B99, trifluoroacetate] with human JAK2 (a.a. 828-1132) (Homo sapiens); value = 20

// returns IC50 for O=C(Nc1ccc2cc1CCc1cncc(c1)Nc1ncc(Cl)c(n1)N2)N1CCN(c2ccc(Cl)cc2)CC1 [Example B307, tris(trifluoroacetate)] with human JAK2 (a.a. 828-1132) (Homo sapiens); value = 217

// returns IC50 for O=S(=O)(Nc1ccc2cc1CCc1cccc(c1)Nc1ncc(Cl)c(n1)N2)c1cccc2cccnc12 [Example B160, bis(trifluoroacetate)] with human JAK2 (a.a. 828-1132) (Homo sapiens); value = 6.4

// returns IC50 for O=C(Nc1ccc2cc1CCc1cccc(c1)Nc1ncc(Cl)c(n1)N2)NC1CCCCC1 [Example B119, trifluoroacetate] with human JAK2 (a.a. 828-1132) (Homo sapiens); value = 3.3

// returns IC50 for O=C(Nc1ccc2cc1CCc1cncc(c1)Nc1ncc(Cl)c(n1)N2)N[C@H]1CCN(C(=O)c2cn[nH]c2)C1 [Example B267, bis(trifluoroacetate)] with human JAK2 (a.a. 828-1132) (Homo sapiens); value = 765

// returns IC50 for CCS(=O)(=O)NCCNC(=O)Nc1ccc2cc1CCc1cccc(c1)Nc1ncc(Cl)c(n1)N2 [Example B325, trifluoroacetate] with human JAK2 (a.a. 828-1132) (Homo sapiens); value = 1.6

// returns IC50 for O=C(Nc1ccc2cc1CCc1cccc(c1)Nc1ncc(Cl)c(n1)N2)Nc1c(Cl)cccc1Cl [Example B113, trifluoroacetate] with human JAK2 (a.a. 828-1132) (Homo sapiens); value = 7.4

// returns IC50 for O=C(Nc1ccccc1)c1ccc2cc1CCc1cccc(c1)Nc1ncc(Cl)c(n1)N2 [Example B200, trifluoroacetate] with human JAK2 (a.a. 828-1132) (Homo sapiens); value = 17

// returns IC50 for O=C(Nc1ccc2cc1CCc1cccc(c1)Nc1ncc(Cl)c(n1)N2)C1CCCC1 [Example B60, trifluoroacetate] with human JAK2 (a.a. 828-1132) (Homo sapiens); value = 8.4

// returns IC50 for O=C(Nc1ccc(Cl)cc1)Nc1ccc2cc1CCc1cccc(c1)Nc1ncc(Cl)c(n1)N2 [Example B86, trifluoroacetate] with human JAK2 (a.a. 828-1132) (Homo sapiens); value = 2.6

// returns IC50 for CCC(C)C(=O)Nc1ccc2cc1CCc1cccc(c1)Nc1ncc(Cl)c(n1)N2 (stereo not shown) [Example B61, trifluoroacetate] with human JAK2 (a.a. 828-1132) (Homo sapiens); value = 1.4

----------
Give log10 IC50 for every item shown.
- measured_target: human JAK2 (a.a. 828-1132) (Homo sapiens, UniProt O60674)
- Construct: JAK2 (a.a. 828-1132); His tag (N); made in house; host or cells: insect cells (baculovirus)
- Sequence (O60674 828-1132): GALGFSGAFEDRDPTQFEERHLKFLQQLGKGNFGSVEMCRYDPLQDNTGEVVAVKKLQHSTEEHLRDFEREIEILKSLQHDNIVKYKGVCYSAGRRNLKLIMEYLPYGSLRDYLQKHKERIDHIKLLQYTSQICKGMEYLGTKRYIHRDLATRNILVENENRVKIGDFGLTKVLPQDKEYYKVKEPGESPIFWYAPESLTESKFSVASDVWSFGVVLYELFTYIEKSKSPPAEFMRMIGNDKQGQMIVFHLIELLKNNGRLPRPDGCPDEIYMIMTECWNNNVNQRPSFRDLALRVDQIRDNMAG
- protocol_summary: In vitro JAK kinase assay (HTRF, phosphorylation of a biotinylated peptide), JAK2
- Type: biochemical
- condition_notes: Table B1
Counter-ions that a name gives are not always drawn.
Note the log scale: values are log10 of IC50 expressed in nM.

What the record says about O=C(Nc1ccc2cc1CCc1cncc(c1)Nc1ncc(Cl)c(n1)N2)N1CCN(c2ccccn2)CC1 [Example B289, tris(trifluoroacetate)] : log10 IC50 is 2.13

What the record says about CC(CO)NC(=O)Nc1ccc2cc1CCc1cccc(c1)Nc1ncc(Cl)c(n1)N2 (stereo not shown) [Example B242, trifluoroacetate] : log10 IC50 is 0.30

What the record says about CC(C)(C)OC(=O)N1CC[C@@H](NC(=O)Nc2ccc3cc2CCc2cccc(c2)Nc2ncc(Cl)c(n2)N3)C1 [Example B174] : log10 IC50 is 1.43

What the record says about O=C(Nc1ccc2cc1CCc1cncc(c1)Nc1ncc(Cl)c(n1)N2)N1CCn2c(nnc2C(F)(F)F)C1 [Example B316, tris(trifluoroacetate)] : log10 IC50 is 2.26

What the record says about CC1(C)Cc2cccc(NC(=O)Nc3ccc4cc3CCc3cccc(c3)Nc3ncc(Cl)c(n3)N4)c2O1 [Example B129, trifluoroacetate] : log10 IC50 is 0.98

What the record says about O=S(=O)(Nc1cc2cc(c1)Nc1nc(ncc1Cl)Nc1cccc(c1)CC2)c1ccccc1 [Example B203, trifluoroacetate] : log10 IC50 is 1.28

What the record says about O=C(NCc1ccccc1)Nc1ccc2cc1CCc1cccc(c1)Nc1ncc(Cl)c(n1)N2 [Example B93, trifluoroacetate] : log10 IC50 is 0.53

What the record says about Cc1nc(S(=O)(=O)Nc2ccc3cc2CCc2cccc(c2)Nc2ncc(Cl)c(n2)N3)cn1C [Example B151, bis(trifluoroacetate)] : log10 IC50 is 0.08

What the record says about CCS(=O)(=O)Nc1ccc2cc1CCc1cccc(c1)Nc1ncc(Cl)c(n1)N2 [Example B141, trifluoroacetate] : log10 IC50 is -0.70

What the record says about Cc1nc(S(=O)(=O)N2CCC(CN(C)Cc3ccc4cc3CCc3cncc(c3)Nc3ncc(Cl)c(n3)N4)CC2)cn1C [Example B343, tris(trifluoroacetate)] : log10 IC50 is 2.11

What the record says about O=C(Nc1ccc2cc1CCc1cccc(c1)Nc1ncc(Cl)c(n1)N2)N[C@H]1CCN(C(=O)c2ccccc2)C1 [Example B170, trifluoroacetate] : log10 IC50 is 1.23

What the record says about CN1CCN(C(=O)c2cc3cc(c2)Nc2nc(ncc2Cl)Nc2cccc(c2)CC3)CC1 [Example B8, trifluoroacetate] : log10 IC50 is 2.54

The reported numbers originate from patent US8871753B2.
